The values you see were collected from patent USRE48335E1.

- Test system: Pseudomonas aeruginosa
- measurement conditions: Pseudomonas aeruginosa FADDI-PA025; broth microdilution in CAMHB
Positions of bridges follow the written chain, without caps; N, C: chain ends. Non-standard residues stand in square brackets, D forms with d. Residues, ends and D or L forms follow the SMILES beside them. *: point of attachment. Benzoyl(3,5-Cl2) = O=C(c1cc(Cl)cc(Cl)c1)*; Dab = NCC[C@H](N)C(=O)O; Dap = NC[C@H](N)C(=O)O
measurement label: Minimum inhibitory concentration, Pa FADDI-PA025 (mg/L)

compound	measurement units	observed result
CC(C)C[C@H]1NC(=O)[C@H](CCN)NC(=O)[C@@H](NC(=O)[C@H](CN)NC(=O)[C@@H](NC(=O)[C@H](CCN)NC(=O)c2cc(Cl)cc(Cl)c2)[C@@H](C)O)CCNC(=O)[C@H]([C@@H](C)O)NC(=O)[C@H](CCN)NC(=O)[C@H](CCN)NC(=O)[C@H](C)NC1=O [Compound 117] ({Benzoyl(3,5-Cl2)}-[Dab]T[Dap][Dab][Dab][dL]A[Dab][Dab]T; lactam 4-C)	mg/L	2

----------
- Test system: Acinetobacter baumannii
Positions of bridges follow the written chain, without caps; N, C: chain ends. Non-standard residues stand in square brackets, D forms with d. Residues, ends and D or L forms follow the SMILES beside them. *: point of attachment. Phenylacetyl(3,4-Cl2) = O=C(Cc1ccc(Cl)c(Cl)c1)*; X30 = Cc1cc(C)c(C(=O)*)c(C)c1; Decanoyl = CCCCCCCCCC(=O)*; Nonanoyl = CCCCCCCCC(=O)*; X26 = Cc1ccc(CC(=O)*)cc1C; Heptanoyl = CCCCCCC(=O)*; Octanoyl = CCCCCCCC(=O)*; X14 = Cc1ccc(C(=O)*)cc1C; Dab = NCC[C@H](N)C(=O)O; Abu = CC[C@H](N)C(=O)O; Dap = NC[C@H](N)C(=O)O; X34 = Cc1ccccc1CC(=O)*
measurement label: Minimum inhibitory concentration, Ab A ATCC 17978 (µg/mL)

compound	observed result
CCCCCCC(=O)N[C@@H](CCN)C(=O)N[C@H](C(=O)N[C@@H](CN)C(=O)N[C@H]1CCNC(=O)[C@H]([C@@H](C)O)NC(=O)[C@H](CCN)NC(=O)[C@H](CCN)NC(=O)[C@H](CC)NC(=O)[C@@H](Cc2ccccc2)NC(=O)[C@H](CCN)NC1=O)[C@@H](C)O [Compound 131] (Heptanoyl-[Dab]T[Dap][Dab][Dab][dF][Abu][Dab][Dab]T; lactam 4-C)	0.25
CC[C@@H]1NC(=O)[C@@H](CC(C)C)NC(=O)[C@H](CCN)NC(=O)[C@@H](NC(=O)[C@H](CN)NC(=O)[C@@H](NC(=O)[C@H](CCN)NC(=O)Cc2ccc(C)c(C)c2)[C@@H](C)O)CCNC(=O)[C@H]([C@@H](C)O)NC(=O)[C@H](CCN)NC(=O)[C@H](CCN)NC1=O [Compound 103] (X26-[Dab]T[Dap][Dab][Dab][dL][Abu][Dab][Dab]T; lactam 4-C)	0.5
CCCCCCCC(=O)N[C@@H](CN)C(=O)N[C@H](C(=O)N[C@H](CO)C(=O)N[C@H]1CCNC(=O)[C@H]([C@@H](C)O)NC(=O)[C@H](CCN)NC(=O)[C@H](CCN)NC(=O)[C@H]([C@@H](C)O)NC(=O)[C@@H](CC(C)C)NC(=O)[C@H](CCN)NC1=O)[C@@H](C)O [Compound 13] (Octanoyl-[Dap]T[dS][Dab][Dab][dL]T[Dab][Dab]T; lactam 4-C)	1
CC[C@@H]1NC(=O)[C@@H](CC(C)C)NC(=O)[C@H](CCN)NC(=O)[C@@H](NC(=O)[C@H](CN)NC(=O)[C@@H](NC(=O)[C@H](CCN)NC(=O)Cc2ccc(Cl)c(Cl)c2)[C@@H](C)O)CCNC(=O)[C@H]([C@@H](C)O)NC(=O)[C@H](CCN)NC(=O)[C@H](CCN)NC1=O [Compound 81] ({Phenylacetyl(3,4-Cl2)}-[Dab]T[Dap][Dab][Dab][dL][Abu][Dab][Dab]T; lactam 4-C)	0.5
CCCCCCCC(=O)N[C@@H](CCN)C(=O)N[C@H](C(=O)N[C@H](CO)C(=O)N[C@H]1CCNC(=O)[C@H]([C@@H](C)O)NC(=O)[C@H](CCN)NC(=O)[C@H](CCN)NC(=O)[C@H](CO)NC(=O)[C@@H](CC(C)C)NC(=O)[C@H](CCN)NC1=O)[C@@H](C)O [Compound 6] (Octanoyl-[Dab]T[dS][Dab][Dab][dL]S[Dab][Dab]T; lactam 4-C)	1
CCCCCCCCC(=O)N[C@@H](CCN)C(=O)N[C@H](C(=O)N[C@@H](CN)C(=O)N[C@H]1CCNC(=O)[C@H]([C@@H](C)O)NC(=O)[C@H](CCN)NC(=O)[C@H](CCN)NC(=O)[C@H]([C@@H](C)O)NC(=O)[C@@H](CC(C)C)NC(=O)[C@H](CCN)NC1=O)[C@@H](C)O [Compound 58] (Nonanoyl-[Dab]T[Dap][Dab][Dab][dL]T[Dab][Dab]T; lactam 4-C)	0.5
CC[C@@H]1NC(=O)[C@@H](CC(C)C)NC(=O)[C@H](CCN)NC(=O)[C@@H](NC(=O)[C@H](CN)NC(=O)[C@@H](NC(=O)[C@H](CCN)NC(=O)Cc2ccccc2C)[C@@H](C)O)CCNC(=O)[C@H]([C@@H](C)O)NC(=O)[C@H](CCN)NC(=O)[C@H](CCN)NC1=O [Compound 76] (X34-[Dab]T[Dap][Dab][Dab][dL][Abu][Dab][Dab]T; lactam 4-C)	1
CCCCCCCCCC(=O)N[C@@H](CCN)C(=O)N[C@H](C(=O)N[C@@H](CN)C(=O)N[C@H]1CCNC(=O)[C@H]([C@@H](C)O)NC(=O)[C@H](CCN)NC(=O)[C@H](CCN)NC(=O)[C@H](C)NC(=O)[C@@H](CC(C)C)NC(=O)[C@H](CCN)NC1=O)[C@@H](C)O [Compound 38] (Decanoyl-[Dab]T[Dap][Dab][Dab][dL]A[Dab][Dab]T; lactam 4-C)	0.5
CC[C@@H]1NC(=O)[C@@H](CC(C)C)NC(=O)[C@H](CCN)NC(=O)[C@@H](NC(=O)[C@H](CN)NC(=O)[C@@H](NC(=O)[C@H](CCN)NC(=O)c2c(C)cc(C)cc2C)[C@@H](C)O)CCNC(=O)[C@H]([C@@H](C)O)NC(=O)[C@H](CCN)NC(=O)[C@H](CCN)NC1=O [Compound 92] (X30-[Dab]T[Dap][Dab][Dab][dL][Abu][Dab][Dab]T; lactam 4-C)	0.5
CC[C@@H]1NC(=O)[C@@H](CC(C)C)NC(=O)[C@H](CCN)NC(=O)[C@@H](NC(=O)[C@H](CN)NC(=O)[C@@H](NC(=O)[C@H](CCN)NC(=O)c2ccc(C)c(C)c2)[C@@H](C)O)CCNC(=O)[C@H]([C@@H](C)O)NC(=O)[C@H](CCN)NC(=O)[C@H](CCN)NC1=O [Compound 83] (X14-[Dab]T[Dap][Dab][Dab][dL][Abu][Dab][Dab]T; lactam 4-C)	1
CCCCCCCCCC(=O)N[C@@H](CCN)C(=O)N[C@H](C(=O)N[C@@H](CCN)C(=O)N[C@H]1CCNC(=O)[C@H]([C@@H](C)O)NC(=O)[C@H](CCN)NC(=O)[C@H](CCN)NC(=O)[C@H](C)NC(=O)[C@@H](CC(C)C)NC(=O)[C@H](CCN)NC1=O)[C@@H](C)O [Compound 40] (Decanoyl-[Dab]T[Dab][Dab][Dab][dL]A[Dab][Dab]T; lactam 4-C)	0.5
